- TEST TARGET: recombinant human IL-13 (human, UniProt P35225 35-146, limits assumed)
- Sequence (P35225 35-146 limits assumed): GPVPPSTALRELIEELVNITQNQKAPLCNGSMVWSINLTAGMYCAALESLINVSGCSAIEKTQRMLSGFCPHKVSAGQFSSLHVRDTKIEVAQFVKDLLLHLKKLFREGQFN
- EXPERIMENT NOTES: cell-based or functional assay
READOUT KIND: EC50 [nM] human IL-13 (IL-13-induced eotaxin release from human lung fibroblasts) (nM)
Report as a plain number; the unit nM is understood.

Give the measured EC50 [nM] human IL-13 (IL-13-induced eotaxin release from human lung fibroblasts) of 01951/G12 antibody (human IgG1, kappa) (antibody, V domains shown) VH: EVQLVESGGGVVQPGRSLRLSCAASGFTFSSYGMHWVRQAPGKGLEWVAIIWYDGSNKYYADSVKGRFTISRDNSKNTLYLQMNSLRAEDTAVYYCARLWFGDLDAFDIWGQGTMVTVSS VL: EIVLTQSPATLSLSPGERAILSCRAGQSVSSYLVWYQQKPGQAPRLLIYDASNRATGIPARFSGSGSGTDFTLTISSLEPEDFAVYYCQQRSSWPPVYTFGQGTKLEIKR .
0.33
